# Selectivity Index per record follows
Organism: Homo sapiens
Assay: Selectivity ratio of Ki for human CB1 receptor to Ki for human CB2 receptor
valueKind: Selectivity Index

>>> assayvalue("CCCCCn1cc(C(=O)NC23CC4CC(CC(C4)C2)C3)c(=O)c2cc(-c3ccc(O)cc3)ccc21")
"> 2380"
>>> assayvalue("CCCCCn1cc(C(=O)NC23CC4CC(CC(C4)C2)C3)c(=O)c2cc(C3CCCCC3)ccc21")
"> 1370"
>>> assayvalue("CCCCCn1cc(C(=O)NC23CC4CC(CC(C4)C2)C3)c(=O)c2cc(Cc3ccc(Cl)cc3Cl)ccc21")
"> 3"
>>> assayvalue("CCCCCn1cc(C(=O)NC23CC4CC(CC(C4)C2)C3)c(=O)c2cc(-c3cccs3)ccc21")
"> 4350"
>>> assayvalue("CCCCCn1cc(C(=O)NC23CC4CC(CC(C4)C2)C3)c(=O)c2cc(-c3c(C)noc3C)ccc21")
"> 80"
>>> assayvalue("CCCCCn1cc(C(=O)NC23CC4CC(CC(C4)C2)C3)c(=O)c2cc(-c3ccc(OC)nc3)ccc21")
"> 169"
>>> assayvalue("CCCCCn1cc(C(=O)NC23CC4CC(CC(C4)C2)C3)c(=O)c2cc(-c3ccco3)ccc21")
"> 14300"
>>> assayvalue("C#CCn1cc(C(=O)NC23CC4CC(CC(C4)C2)C3)c(=O)c2cc(Br)ccc21")
64
>>> assayvalue("CCCCCn1cc(C(=O)NC23CC4CC(CC(C4)C2)C3)c(=O)c2cc(-c3ccc4cc(OC)ccc4c3)ccc21")
7
>>> assayvalue("C#Cc1ccc2c(c1)c(=O)c(C(=O)NC13CC4CC(CC(C4)C1)C3)cn2CCCCC")
"> 1140"
>>> assayvalue("CCCCCn1cc(C(=O)NC23CC4CC(CC(C4)C2)C3)c(=O)c2cc(S(=O)(=O)c3ccccc3)ccc21")
"> 152"
>>> assayvalue("CCCCCn1cc(C(=O)NC23CC4CC(CC(C4)C2)C3)c(=O)c2cc(-c3cc(C)c(OC)c(C)c3)ccc21")
24
>>> assayvalue("CCCCCn1cc(C(=O)NC23CC4CC(CC(C4)C2)C3)c(=O)c2cc(CC)ccc21")
53
>>> assayvalue("CCCCCn1cc(C(=O)NC2CCCCC2)c(=O)c2cc(Br)ccc21")
2
>>> assayvalue("C=CCCn1cc(C(=O)NC23CC4CC(CC(C4)C2)C3)c(=O)c2cc(-c3ccco3)ccc21")
"> 2270"
>>> assayvalue("CCCCCn1cc(C(=O)NC23CC4CC(CC(C4)C2)C3)c(=O)c2cc(C#Cc3ccccc3)ccc21")
"> 29"
>>> assayvalue("CCCCCn1cc(C(=O)NC23CC4CC(CC(C4)C2)C3)c(=O)c2cc(CCc3ccccc3)ccc21")
"> 177"
>>> assayvalue("CCCCCn1cc(C(=O)NC23CC4CC(CC(C4)C2)C3)c(=O)c2cc(-n3ccnc3)ccc21")
"> 1250"

meta.source: ChEMBL document CHEMBL1212935
